Test: Toxicity liver stage against HepG2, at 10uM
Assay type: cell-based
Design: test concentration 10 uM, cell line HepG2-A16-CD81EGFP
Details: human, HepG2-A16-CD81EGFP cells; read-out: INHIBITION
OUTCOME MEASURE: cytotoxicity at 10 µM (%)
One number for each entry, in %.

COMPOUND | REPORTED MEASUREMENT
Cc1nc(C2CN(C)CCO2)cc(N2CCC(C(N)=O)CC2)n1 (stereo unspecified) | -22.8
CC(C)c1nc2c(n1C)CCN(Cc1cccc(OCC(N)=O)c1)C2 | -7.24
CNC(=O)Cc1coc(-c2ccc(F)cc2)n1 | -4.15
CCn1c(C)cc(C(=O)N2CCCC(n3ccnc3C)C2)c1C (stereo unspecified) | -1.51

I'm hoping you can list cytotoxicity at 10 µM for every compound here, please.
1. Cc1cnn(CC2CCCN2Cc2noc(C)n2)c1 (stereo unspecified)
2. O=C1CCCC2=Nc3nonc3NC(c3ccccc3Cl)C12 (stereo unspecified)
3. Cn1cc(CN2CC[C@]3(C[C@H](Oc4ccccn4)CO3)C2)cn1
4. CC(Cn1ccnc1)NC(=O)N1CCN(Cc2cccnc2)CC1 (stereo unspecified)
5. CCN1CC(=O)c2sc(NC(C)C)nc2C1
6. CCc1nnc(CN(CC)C(=O)C2CC(=O)N(C3CCCC3)C2)o1 (stereo unspecified)

1: 0.742; 2: 18.5; 3: 10.8; 4: 4.31; 5: -10.6; 6: -2.57

Returns the measured cytotoxicity at 10 µM for the input compound. Input: "COC(=O)[C@H]1CCCCN1C(=O)c1cccc(-n2cccn2)c1"
-8.29

====

Assay: Toxicity liver stage against HepG2, at 10uM
Assay type: cell-based
Set-up: test concentration 10 uM, cell line HepG2-A16-CD81EGFP
Details: human, HepG2-A16-CD81EGFP cells; read-out: INHIBITION
OUTCOME MEASURE: cytotoxicity at 10 µM (%)
One number for each entry, in %.

// known answers, use as guide
MOLECULE | cytotoxicity at 10 µM, %
Cc1nc(C)c(CN2CCOC(CNc3cccnn3)C2)s1 (stereo not drawn) | -1.71
CC(C)(C)C(=O)NCCNCc1ccc(Cl)c2cccnc12 | -11.4

Suppose we examine the molecule COCCCN(Cc1ccccn1)Cc1ccnn1C1CCCCO1 (stereo not drawn) ; what cytotoxicity at 10 µM value has been reported?
-2.66

====

Assay: Toxicity liver stage against HepG2, at 10uM
Type: cell-based
Design: test concentration 10 uM, cell line HepG2-A16-CD81EGFP
Conditions: human, HepG2-A16-CD81EGFP cells; read-out: INHIBITION
OUTCOME MEASURE: cytotoxicity at 10 µM
A complete answer gives the number and then names the unit.

Here are 3 compounds. What values of cytotoxicity at 10 µM were reported for them?
1. CCC(C(=O)NCC1CCN(c2cnn(C)c(=O)c2)CC1)n1cccn1 (stereo not given)
2. COCCC(=O)N1CCCC(CCC(=O)NCc2cccc(OC)c2)C1 (stereo not given)
3. CC(C)N1CCOC(Cc2nn3c(Cc4ccccc4)nnc3s2)C1 (stereo not given)

6.01%
23.1%
-6.53%

For every listed record, write down its cytotoxicity at 10 µM.
1. COc1ccc(S(=O)(=O)N2CC(CC(=O)O)c3ccccc32)cc1 (stereo not given)
2. Cc1nc(C)n(CC2CN(CCCc3ccccc3)CCO2)n1 (stereo not given)

1. 6.04%
2. 2.89%

====

Assay: Toxicity liver stage against HepG2, at 10uM
Type: cell-based
Parameters: test concentration 10 uM, cell line HepG2-A16-CD81EGFP
Conditions: human, HepG2-A16-CD81EGFP cells; read-out: INHIBITION
Exercise: for every item that follows, state its recorded cytotoxicity at 10 µM.
Numbers only, in %.

// worked examples, cytotoxicity at 10 µM included
COMPOUND | cytotoxicity at 10 µM / %
CC1(NC(=O)CC2CCc3ccccc32)CCOCC1 (stereo not given) | 0.995
CN1CCC(NC(=O)c2cc(Cl)cc(Br)c2O)C1=O (stereo not given) | 4.84
CN(CC(O)CO)c1nc(-c2cccnc2)nc2c1CCNC2 (stereo not given) | -0.0186
CC(=O)NCCc1ncnn1-c1ccc(F)c(Cl)c1 | -15
CN(CC(=O)NC1(C)CCS(=O)(=O)C1)Cc1ccc(Br)cc1 (stereo not given) | -1.4

Return reported cytotoxicity at 10 µM values for all items listed beneath this line.
1. CCc1n[nH]c(C2CN(C(=O)c3ccc4c(c3)CCCC4)CCO2)n1 (stereo not given)
2. Cc1ccc(OCC2CCCN(C(=O)c3csc(CN(C)C)n3)C2)cc1 (stereo not given)
3. Cc1ccc(NCc2ccccc2C#N)cc1-n1cnnn1
4. Cc1cnn(C(C)C2CC2)c1NC(=O)c1ncccc1O (stereo not given)
5. O=C(NCC(O)c1cccc(F)c1)C1CCN(C2CCCCC2)CC1 (stereo not given)
6. O=C(c1cnn2c(-c3ccco3)ccnc12)N1CCCCCC1
7. CCc1cnc(NCC2OCCc3ccccc32)nc1 (stereo not given)

[-16.1, -3.16, 4.25, 7.4, 7.07, 14.4, -3.6]

====

Experiment: Toxicity liver stage against HepG2, at 10uM
Type: cell-based
Set-up: test concentration 10 uM, cell line HepG2-A16-CD81EGFP
Settings: human, HepG2-A16-CD81EGFP cells; read-out: INHIBITION
I'd be grateful if you could share measured cytotoxicity at 10 µM for these entries.
Numbers only, in %.

I would be grateful if you could provide cytotoxicity at 10 µM for each of the following entries.
1. Cc1cccc(N(CC(=O)c2ccccc2)C2=NCCCCC2)c1
2. CCN1Cc2c(C(=O)NCC3CC3)ncn2-c2ccccc2S1(=O)=O
3. CC(C)(O)CN1CCN(C(=O)COC2CCCC2)CC1
4. CN(C(=O)C(c1c(F)cccc1Cl)N(C)C)c1nccs1 (stereo not given)
5. CN(C)c1nc2n(c(=O)n1)CCN2C(=O)Nc1ccc(Cl)c(Cl)c1
6. Cc1cnn(C(C)C2CC2)c1NC(=O)c1ccncc1 (stereo not given)
7. O=C(NCc1ncc[nH]1)c1c(F)cccc1I

1. 14.5
2. -12.2
3. 1.46
4. -58
5. 9.76
6. -8.48
7. -6.78

State recorded cytotoxicity at 10 µM for all listed compounds.
1. COCCN1CCCC1Cn1nc(C)cc1C (stereo not given)
2. CSCC(C)NS(=O)(=O)c1ccc(C)c(N(C)C)c1 (stereo not given)
3. CC(C#N)CSc1ccccc1NCC(=O)NC(=O)NC(C)(C)C (stereo not given)
4. CCc1nccn1C1CCCN(C(=O)c2ccc(C(=O)NC)nc2)C1 (stereo not given)
5. CC(=O)N1[C@H](CN(C)C)C[C@@H]2CN(C(=O)c3ccno3)CC[C@@H]21
6. Cn1ccc(C(=O)N2CCCN(CCCc3ccccc3)CC2)cc1=O
7. Cc1cc2n(n1)CC(CNCc1ccccc1Cn1cccn1)CN2 (stereo not given)
8. Cn1cnc(S(=O)(=O)N2C[C@H]3CC[C@@H](C2)N(Cc2cscn2)C3=O)c1

1. 1.31
2. -3.25
3. 11.7
4. -6.33
5. 4.35
6. -0.942
7. -13.3
8. -20.2

Your task in this section: give cytotoxicity at 10 µM for each listed record.
1. O=c1n(CCSCCOc2ccc(Br)cc2)nc2ccccn12
2. Cc1c(C2CCCN(C(=O)c3cccnc3)C2)n2c(nc1=O)CCC2 (stereo not given)
3. CCN1CCN(Cc2nc(CC(C)C)no2)CC1
4. Cc1ccc2cccc(S(=O)(=O)N(C)C3CCCN(C)C3)c2n1 (stereo not given)

[10, -17.1, -23, 1.5]

Please give cytotoxicity at 10 µM for each item listed below.
1. CCS(=O)(=O)N1CCC2(CCCN(c3ncc(F)cn3)C2)C1 (stereo not given)
2. Cn1c2c(ccc1=O)CC(Nc1ncc(F)cn1)CC2 (stereo not given)
3. Fc1cnccc1CN1CCCC2(CCN(c3ncccn3)CC2)C1
4. Cn1nc(CNc2ncccn2)c2c1CN(c1cnccn1)CC2
5. CC(C)Nc1nc(O)cc(C2CC(=O)N(Cc3ccccc3)C2)n1 (stereo not given)

[10.3, -143, -112, -107, -28.5]

List cytotoxicity at 10 µM for every entry below, keeping the order given.
1. Fc1cccnc1N1CCOCC2(CCCN(c3nncs3)C2)C1 (stereo not given)
2. Cn1cc(C2(C)CN(C(=O)Nc3ccccc3F)CCO2)cn1 (stereo not given)
3. CN(Cc1ccccn1)C(=O)[C@H]1CO[C@H]2CCN(CC3CC3)C[C@H]2C1
4. O=C1CCc2cc(-c3csc(CCN4CCCC4=O)n3)ccc2N1

1. 3.44
2. -5.23
3. -105
4. -6.64

# batch size: 5; output cytotoxicity at 10 µM per entry
1. Cc1ccc(-c2ccccc2CC2(C(=O)NC(C)C)CCCNC2)cc1 (stereo not given)
2. CC(C)c1ccc(OCCC(=O)NCCC(=O)N(C)C)cc1
3. CCCc1nc(CN2CCOC(Cn3cccn3)C2)no1 (stereo not given)
4. Cc1cc(CN2CCN(C(=O)NCc3ccc(C)s3)CC2)no1
5. O=C(c1cscn1)N1C[C@@H](Oc2cccnc2)[C@H]2OCCC[C@H]21

[2.73, -4.37, -27.1, -2.84, 7.77]

I need cytotoxicity at 10 µM for every entry listed below, if you could help.
1. CCC(NC(=O)c1c(C(=O)O)cnn1C)c1ccc(C)cc1C (stereo not given)
2. CC(=O)N1CCC[C@H]1C(=O)N(C)CCCOc1ccccc1
3. O[C@@H]1CC(CNCc2cccc(Cl)c2)(COc2cnccn2)C[C@@H]1O (stereo not given in full)
4. CCOCC(O)CN1CCN(C(=O)Cc2ccc3c(c2)CCC3)CC1 (stereo not given)
5. O=S(=O)(NCCN1CCCCC1Cn1cncn1)c1ccccc1 (stereo not given)

[-7.58, -1.18, -3.58, -15.5, -9.12]

Each of the following entries comes with a recorded value; kindly state cytotoxicity at 10 µM for each.
1. O=C(NCC1CC1)[C@@H]1CCO[C@@H]2CCN(Cc3ccco3)C[C@H]21
2. CCc1nccn1CC(=O)Nc1cccc(C(=O)N(C)C)c1

[-4.93, -6.77]
